Measured values drawn from patent US10335392B2 for this set.

target: TNFα (Homo sapiens (Human)); test: TNF induced HEK-Blue assay; conditions: TNFα 0.5 ng/ml; HEK-Blue-CD40L cells, NF-kB-driven secreted alkaline phosphatase reporter; 18 h
Sequence (P01375 77-233): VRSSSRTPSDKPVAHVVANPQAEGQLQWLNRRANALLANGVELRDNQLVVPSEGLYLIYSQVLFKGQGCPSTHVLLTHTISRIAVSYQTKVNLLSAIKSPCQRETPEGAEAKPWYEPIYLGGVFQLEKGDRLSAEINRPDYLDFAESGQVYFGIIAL
pIC50: −log10 of the molar value.
// reported pIC50 for each item listed

As a guide, the following entries are already answered.
CC(C)(O)c1ncc(-c2cc3c(cc2F)nc2n3[C@@H](c3ccccc3OCc3ccccc3)[C@H]3C[C@@H]23)cn1 (racemic) [Example 26] :: 4.60 to 5.00
CC(C)(O)c1ncc(-c2cc3c(cc2F)nc2n3[C@@H](c3ccccc3Oc3ccccc3F)[C@@H]3C[C@H]23)cn1 [Example 29] :: 5.00 to 6.00
COc1ccc(-c2ccc3nc4n(c3c2)[C@@H](c2ccccc2)[C@H]2CC=CC[C@@H]42)cn1 (racemic) [Example 42] :: 4.60 to 5.00

Would you kindly look at the next entry?
Supply reported pIC50 belonging to this compound: Fc1cc2nc3n(c2cc1-c1cnc(N2CCOCC2)nc1)[C@H](c1ccccc1OC(F)F)[C@@H]1C[C@H]31 [Example 32] 5.00 to 6.00
